# assay-details: BSK_hDFCGF_Proliferation: Cell Proliferation Assessment in the BioMAP Diversity Plus: hDFCGF Assay (AID 2283059);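 further: curves fitted for both rise and fall of signal versus DMSO baseline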
# measurement-parameters: primary human foreskin fibroblasts
Calls of active or inactive are those of the source. How the source made its calls: active means hit-call score of the fitted dose curve at least 0.9, where 1 is the maximum; inactive means score below 0.9.
One label from this list, please: active, inactive

Tell me the assay call for `C[C@H]1C[C@@H]2[C@H]([C@@H](O)C[C@@]3(C)[C@H]2CC[C@]3(O)C(=O)CO)[C@@]2(C)C=CC(=O)C=C12` please. inactive

Tell me the assay call for `CCC(=O)OCc1ccccc1` please. inactive

Tell me the assay call for BrC1CCC(Br)C(Br)CCC(Br)C(Br)CCC1Br (configuration not stated) please. active

Tell me the assay call for CC(=O)OCCC(C)CC(C)(C)C (configuration not stated) please. inactive

Tell me the assay call for `O=C(O)C[C@H](O)C[C@H](O)/C=C/c1c(C2CC2)nc2ccccc2c1-c1ccc(F)cc1` please. active

Tell me the assay call for `NCCNCCN` please. inactive

Tell me the assay call for `c1ccc2c(c1)c1cccc3ccc4cccc2c4c31` please. inactive

Tell me the assay call for `O=C(O)c1cn(-c2ccc(F)cc2)c2cc(N3CCNCC3)c(F)cc2c1=O` please. inactive

Tell me the assay call for `c1ccc2sc(SN(C3CCCCC3)C3CCCCC3)nc2c1` please. active

Tell me the assay call for `O=C(O)c1ccc([N+](=O)[O-])cc1` please. inactive

Tell me the assay call for CC1COc2ccccc2N1C(=O)C(Cl)Cl (configuration not stated) please. active

Tell me the assay call for CC1CCC(C(C)CS)CC1S (configuration not stated) please. active

Tell me the assay call for CN(CCOc1ccc(CC2SC(=O)NC2=O)cc1)c1ccccn1 (configuration not stated) please. active

Tell me the assay call for `O=C(O)c1cn(C2CC2)c2cc(N3CCNCC3)c(F)cc2c1=O` please. inactive

Tell me the assay call for `O=[N+]([O-])c1cc(C(F)(F)F)ccc1Cl` please. active

Tell me the assay call for `CCCCCCCCC=O` please. inactive

Tell me the assay call for `CCc1c(C)cc(N)c(CC)c1N` please. inactive

Tell me the assay call for `CCn1c2ccccc2c2cc(N)ccc21` please. inactive

Tell me the assay call for OC1OC[C@@H](O)[C@H](O)[C@H]1O (some centres not stated) please. inactive

Tell me the assay call for `OC[C@H]1O[C@H](O[C@]2(CCl)O[C@H](CCl)[C@@H](O)[C@@H]2O)[C@H](O)[C@@H](O)[C@H]1Cl` please. inactive

Tell me the assay call for CCCCC(CC)COCCC#N (configuration not stated) please. active

Tell me the assay call for `C#C[C@]1(O)CC[C@H]2[C@@H]3CCC4=Cc5oncc5C[C@]4(C)[C@H]3CC[C@@]21C` please. inactive

Tell me the assay call for `Nc1cc([N+](=O)[O-])ccc1Cl` please. inactive

Tell me the assay call for `CC(C)Oc1ccccc1O` please. active

Tell me the assay call for `CC(=O)O[C@]1(C(C)=O)CC[C@H]2[C@@H]3C[C@H](C)C4=CC(=O)CC[C@]4(C)[C@H]3CC[C@@]21C` please. active

Tell me the assay call for `C=C[Si](OCC)(OCC)OCC` please. active

Tell me the assay call for `CNC[C@H](O)c1cccc(O)c1` please. inactive

---

# assay-details: CCTE_Deisenroth_5AR_NBTE_donor: CCTE's 5alpha-reductase NanoBRET Target Engagement Assay […], Deisenroth Lab (AID 2284319)
# measurement-parameters: actives raise or lower the signal
Active and inactive are the calls of the source. How the source made its calls: active means hit-call score of the fitted dose curve at least 0.9, where 1 is the maximum; inactive means score below 0.9.
One label from this list, please: t = active, f = inactive

Tell me the assay call for BrC1CCC(Br)C(Br)CCC(Br)C(Br)CCC1Br (stereo not drawn) please. f

Tell me the assay call for `O=Nc1ccc(Nc2ccccc2)cc1` please. t

Tell me the assay call for CCCCCC(CO)CCC (stereo not drawn) please. f

---

# assay-details: ATG_E_Box_CIS: Attagene CIS-FACTORIAL HepG2 Assay for human Enhancer Box (E-box) (AID 2282936)
# measurement-parameters: HepG2 E-box cis-reporter transcription, actives raise or lower the signal
The source made the active and inactive calls. How the source made its calls: active means hit-call score of the fitted dose curve at least 0.9, where 1 is the maximum; inactive means score below 0.9.
One label from this list, please: TRUE = active, FALSE = inactive

Tell me the assay call for `CCCCCNCCCCC` please. FALSE

Tell me the assay call for `O=C(O)CCSCCC(=O)O` please. FALSE

Tell me the assay call for `Nc1cc(N)cc(C(=O)O)c1` please. FALSE

Tell me the assay call for `O=Nc1ccc(Nc2ccccc2)cc1` please. TRUE

Tell me the assay call for `Nc1nc2ccc([N+](=O)[O-])cc2s1` please. FALSE

Tell me the assay call for `c1ccc2[nH]ccc2c1` please. FALSE

Tell me the assay call for `Clc1sc(Cl)c(Cl)c1Cl` please. FALSE

Tell me the assay call for `CCCCCOC(=O)CCC` please. FALSE

Tell me the assay call for `CCCCCCCCCCN` please. FALSE

Tell me the assay call for `CC(=O)[C@H]1CC[C@H]2[C@@H]3CC=C4C[C@@H](O)CC[C@]4(C)[C@H]3CC[C@]12C` please. FALSE

Tell me the assay call for `O=C(O)c1cccc([N+](=O)[O-])c1` please. FALSE

Tell me the assay call for `NC(=O)c1ccccc1Cl` please. TRUE

Tell me the assay call for `CC[C@]12CCCN3CCc4c(n(c5ccccc45)[C@@](O)(C(=O)OC)C1)[C@@H]32` please. FALSE

Tell me the assay call for `CCCCCCCCCCCCN` please. FALSE

Tell me the assay call for `CCCCCCCCCOC(C)=O` please. FALSE

---

# Read-out: TIMP metallopeptidase inhibitor 1 (TIMP1), TIMP1 (gene 7076)
# assay-details: BSK_hDFCGF_TIMP1: BioMAP Diversity Plus: hDFCGF Assay for TIMP metallopeptidase inhibitor 1 (TIMP1) Biomarker Activity (AID 2283062)
# measurement-parameters: primary human foreskin fibroblasts; actives raise or lower the signal
The source made the active and inactive calls. How the source made its calls: active means hit-call score of the fitted dose curve at least 0.9, where 1 is the maximum; inactive means score below 0.9.
property-measured: outcome

1) CC(=O)Nc1ccccc1O = inactive
2) Cc1ccc2n[nH]nc2c1 = inactive
3) OC1OC[C@@H](O)[C@H](O)[C@H]1O (stereo partly drawn) = inactive
4) CC(C)c1ccc(C(C)C)cc1 = inactive
5) CCCCCCCCC=O = inactive

Given item `CCCCCCCCCC=O` , the value recorded as its outcome is inactive

Given item CN(CCOc1ccc(CC2SC(=O)NC2=O)cc1)c1ccccn1 (stereo not drawn) , the value recorded as its outcome is inactive

Given item `CC(=O)/C=C/C1=C(C)CCCC1(C)C` , the value recorded as its outcome is inactive

---

# measurement-target: Estrogen receptor (Homo sapiens) (UniProt P03372)
# Sequence (P03372 whole entry, looked up): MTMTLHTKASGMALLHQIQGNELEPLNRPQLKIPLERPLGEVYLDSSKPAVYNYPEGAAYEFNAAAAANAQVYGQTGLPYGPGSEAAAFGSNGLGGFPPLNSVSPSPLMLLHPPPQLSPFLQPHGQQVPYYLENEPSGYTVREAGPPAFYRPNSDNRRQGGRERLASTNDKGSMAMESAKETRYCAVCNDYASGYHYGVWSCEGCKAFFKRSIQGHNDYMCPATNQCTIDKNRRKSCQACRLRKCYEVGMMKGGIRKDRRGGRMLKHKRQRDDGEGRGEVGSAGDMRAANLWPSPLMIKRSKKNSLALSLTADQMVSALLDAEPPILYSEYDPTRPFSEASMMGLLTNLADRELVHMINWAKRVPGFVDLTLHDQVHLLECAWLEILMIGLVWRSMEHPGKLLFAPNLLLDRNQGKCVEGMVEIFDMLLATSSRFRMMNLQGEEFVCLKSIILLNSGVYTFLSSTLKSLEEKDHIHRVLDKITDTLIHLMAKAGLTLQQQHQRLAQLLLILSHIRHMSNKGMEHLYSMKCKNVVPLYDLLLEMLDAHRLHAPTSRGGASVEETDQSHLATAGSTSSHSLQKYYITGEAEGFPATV
# assay-details: NVS_NR_hER: NovaScreen (NVS) Nuclear Receptor Binding Assay for human Estrogen Receptor (ER) (AID 2283348)
Results filed as inconclusive are left out. The source made the active and inactive calls. Rule for the calls: active = hit-call score of the fitted dose curve at least 0.9, where 1 is the maximum; inconclusive = response in the unintended direction; inactive = score below 0.9.
One label from this list, please: active, inactive

Tell me the assay call for CC1COc2ccccc2N1C(=O)C(Cl)Cl (centres undefined) please. active

Tell me the assay call for CC1=CCC2C(C1)C2(C)C (centres undefined) please. inactive

Tell me the assay call for `O=C(COc1ccc(Cl)cc1)N1CCN(Cc2ccc3c(c2)OCO3)CC1` please. inactive

Tell me the assay call for `CC(C)C(C)(C)C(C)(C)C(C)(C)S` please. inactive

Tell me the assay call for c1cc(C(c2ccc(OCC3CO3)cc2)c2ccc(OCC3CO3)cc2)ccc1OCC1CO1 (centres undefined) please. inactive

Tell me the assay call for `CCCCCCCCC=O` please. inactive

Tell me the assay call for COC(=O)C1=C(C)NC(C)=C(C(=O)OCCN(C)Cc2ccccc2)C1c1cccc([N+](=O)[O-])c1 (centres undefined) please. active

Tell me the assay call for `CC(C)c1cccc(O)c1` please. inactive

Tell me the assay call for `CC(=O)[C@H]1CC[C@H]2[C@@H]3CC=C4C[C@@H](O)CC[C@]4(C)[C@H]3CC[C@]12C` please. inactive

---

# Read-out: CD40, CD40 (gene 958)
# assay-details: BSK_LPS_CD40: BioMAP Diversity Plus: LPS Assay for CD40 Biomarker Activity (AID 2283076)
# measurement-parameters: primary human HUVEC with PBMC; actives raise or lower the signal
The source made the active and inactive calls. Rule for the calls: active = hit-call score of the fitted dose curve at least 0.9, where 1 is the maximum; inactive = score below 0.9.
One label from this list, please: class 1 (active), class 0 (inactive)

Tell me the assay call for `CC(=O)Nc1ccccc1O` please. class 0

Tell me the assay call for `C=C(C)C(=O)O[C@H]1C[C@@H]2CC[C@@]1(C)C2(C)C` please. class 1

Tell me the assay call for `O=C(O)c1ccc([N+](=O)[O-])cc1` please. class 0

Tell me the assay call for `N#Cc1ccc(CC(=NNC(=O)Nc2ccc(OC(F)(F)F)cc2)c2cccc(C(F)(F)F)c2)cc1` please. class 0

Tell me the assay call for `O=C1OC2(c3cc(Br)c(O)c(Br)c3Oc3c2cc(Br)c(O)c3Br)c2c(Cl)c(Cl)c(Cl)c(Cl)c21` please. class 1

Tell me the assay call for `Cc1ccc2n[nH]nc2c1` please. class 0
